- ASSAY_OVERVIEW: Pharmacokinetics of ingredients in rat plasma after oral administration of shimotsuto (targeted LC–MS/MS)
- Format: in vivo
- MEASUREMENT_CONTEXT: rat, in vivo, po, 1 g/kg
Assign Cmax to each entry below.
Numbers only, in ng/mL.

molecule="CC12CC(O)C3CC1(OC1OC(CO)C(O)C(O)C1O)C3(COC(=O)c1ccccc1)C(=O)O2 (stereo not shown) [Albiflorin]" result=6.34
molecule="CCCCC1OC(=O)c2ccccc21 (stereo not shown) [Butylphthalide]" result=13.7
molecule="COc1cc(/C=C/C(=O)O)ccc1O [Ferulic acid]" result=12.4

Please find the next molecule below.
Consider the molecule OC[C@H]1O[C@@H](O[C@@H]2OC=C[C@H]3[C@H](O)[C@@H]4O[C@]4(CO)[C@@H]23)[C@H](O)[C@@H](O)[C@@H]1O [Catalpol] and give its recorded Cmax. 1360

---

- TARGET_DESC: human TRPM8 (Homo sapiens)
- Construct: The full length of each of human transient receptor potential ankyrin 1 (TRPA1); expressed in transfected cells
- Sequence (Q7Z2W7 whole entry): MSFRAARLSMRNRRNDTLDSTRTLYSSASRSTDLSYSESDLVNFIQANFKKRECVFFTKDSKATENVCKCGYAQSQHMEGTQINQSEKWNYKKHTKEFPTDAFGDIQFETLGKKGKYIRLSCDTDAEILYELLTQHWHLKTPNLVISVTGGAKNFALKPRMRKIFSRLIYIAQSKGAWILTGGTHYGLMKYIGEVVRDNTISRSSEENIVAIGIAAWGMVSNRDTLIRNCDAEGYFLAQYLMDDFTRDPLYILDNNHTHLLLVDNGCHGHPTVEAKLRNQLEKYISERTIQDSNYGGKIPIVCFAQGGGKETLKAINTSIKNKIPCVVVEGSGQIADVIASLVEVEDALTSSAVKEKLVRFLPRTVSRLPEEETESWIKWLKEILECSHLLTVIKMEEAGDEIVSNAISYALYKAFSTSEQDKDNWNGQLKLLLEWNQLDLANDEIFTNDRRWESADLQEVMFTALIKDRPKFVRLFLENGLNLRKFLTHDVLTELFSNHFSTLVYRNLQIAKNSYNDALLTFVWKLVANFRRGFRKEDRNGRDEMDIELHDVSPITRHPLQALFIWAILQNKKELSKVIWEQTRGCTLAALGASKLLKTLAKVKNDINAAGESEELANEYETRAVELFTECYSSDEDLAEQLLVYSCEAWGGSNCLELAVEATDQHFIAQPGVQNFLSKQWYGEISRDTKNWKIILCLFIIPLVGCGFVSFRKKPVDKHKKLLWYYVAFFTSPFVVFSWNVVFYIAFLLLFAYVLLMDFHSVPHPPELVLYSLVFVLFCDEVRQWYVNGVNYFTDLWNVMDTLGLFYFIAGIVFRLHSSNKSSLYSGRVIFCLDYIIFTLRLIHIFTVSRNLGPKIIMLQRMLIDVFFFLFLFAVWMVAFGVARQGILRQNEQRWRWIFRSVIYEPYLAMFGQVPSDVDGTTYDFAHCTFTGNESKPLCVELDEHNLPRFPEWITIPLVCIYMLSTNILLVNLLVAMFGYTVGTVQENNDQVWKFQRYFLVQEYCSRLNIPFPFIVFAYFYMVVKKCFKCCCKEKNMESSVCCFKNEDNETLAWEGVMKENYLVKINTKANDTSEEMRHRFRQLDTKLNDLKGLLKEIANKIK
- ASSAY_OVERVIEW: Ca2+ influx assay for TRP channel agonistic activity in T-REx-293 cells
- Format: cell-based
- MEASUREMENT_CONTEXT: 10 µmol/L test ingredient, positive control 20 µmol/L icilin, read-out: % Activation compared to positive control, TRPM8
QUANTITY_MEASURED: activation at 10 µM (%)
Numbers only, in %.

Give activation at 10 µM for each of the items listed below.
1. COc1cc(/C=C/C(=O)O)ccc1O
2. OC[C@H]1O[C@@H](O[C@@H]2OC=C[C@H]3[C@H](O)[C@@H]4O[C@]4(CO)[C@@H]23)[C@H](O)[C@@H](O)[C@@H]1O
3. CCCCC1OC(=O)c2ccccc21 (stereo not drawn) [Butylphthalide]
4. CCC/C=C1\OC(=O)C2=C1CCC=C2 [Ligustilide]

5
3
-1
18

For each entry beneath this line, provide reported activation at 10 µM.
1. CC12CC3(O)OC(O1)C1(CO)C3CC21OC1OC(CO)C(O)C(O)C1O (stereo not drawn)
2. COc1c2ccoc2cc2oc(=O)ccc12
3. CC12CC(O)C3CC1(OC1OC(CO)C(O)C(O)C1O)C3(COC(=O)c1ccccc1)C(=O)O2 (stereo not drawn)
4. CCCC[C@@H]1OC(=O)C2=C1CCC=C2 [Senkyunolide A]
5. C[C@@]12C[C@@]3(O)O[C@@H](O1)[C@]1(COC(=O)c4ccccc4)[C@H]3C[C@@]12O[C@@H]1O[C@H](CO)[C@@H](O)[C@H](O)[C@H]1O

2
0
1
-1
0

---

- TARGET_DESC: human TRPA1 (Homo sapiens)
- Construct: The full length of each of human transient receptor potential ankyrin 1 (TRPA1); expressed in transfected cells
- Sequence (O75762 whole entry): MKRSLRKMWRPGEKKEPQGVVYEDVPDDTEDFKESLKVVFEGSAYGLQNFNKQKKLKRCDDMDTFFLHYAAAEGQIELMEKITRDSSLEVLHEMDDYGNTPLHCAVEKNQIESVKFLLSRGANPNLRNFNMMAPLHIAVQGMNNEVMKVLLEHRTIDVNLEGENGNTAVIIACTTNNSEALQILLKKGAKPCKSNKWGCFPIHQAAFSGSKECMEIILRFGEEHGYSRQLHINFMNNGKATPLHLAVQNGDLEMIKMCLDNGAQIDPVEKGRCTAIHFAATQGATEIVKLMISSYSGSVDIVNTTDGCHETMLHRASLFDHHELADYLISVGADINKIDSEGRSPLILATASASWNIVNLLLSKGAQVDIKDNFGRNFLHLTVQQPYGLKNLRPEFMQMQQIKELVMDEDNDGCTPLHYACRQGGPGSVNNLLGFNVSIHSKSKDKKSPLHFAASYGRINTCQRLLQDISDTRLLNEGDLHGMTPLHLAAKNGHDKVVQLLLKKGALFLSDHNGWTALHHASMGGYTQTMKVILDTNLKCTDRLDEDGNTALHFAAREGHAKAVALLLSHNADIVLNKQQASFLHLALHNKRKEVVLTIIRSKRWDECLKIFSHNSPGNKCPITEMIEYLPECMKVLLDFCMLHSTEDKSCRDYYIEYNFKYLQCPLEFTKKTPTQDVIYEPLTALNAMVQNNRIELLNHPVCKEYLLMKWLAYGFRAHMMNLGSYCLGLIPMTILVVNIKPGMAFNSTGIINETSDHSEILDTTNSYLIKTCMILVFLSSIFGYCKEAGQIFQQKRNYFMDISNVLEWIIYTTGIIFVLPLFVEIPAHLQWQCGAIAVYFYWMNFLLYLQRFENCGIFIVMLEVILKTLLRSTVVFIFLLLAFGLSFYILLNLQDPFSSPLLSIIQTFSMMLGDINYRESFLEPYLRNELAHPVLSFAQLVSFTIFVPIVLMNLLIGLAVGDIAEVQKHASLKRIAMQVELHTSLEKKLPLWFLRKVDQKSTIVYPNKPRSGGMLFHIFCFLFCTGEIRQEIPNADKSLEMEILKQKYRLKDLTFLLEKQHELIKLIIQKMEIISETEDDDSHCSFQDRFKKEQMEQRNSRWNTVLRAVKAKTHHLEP
- ASSAY_OVERVIEW: Ca2+ influx assay for TRP channel agonistic activity in T-REx-293 cells
- Format: cell-based
- MEASUREMENT_CONTEXT: TRP stable expression cell lines
- Experimental: […] First, cells were suspended in culture medium with 1 µg/mL of tetracycline and seeded on a poly-D-lysine-coated 96-well plate at a density of 2.5 × 10^4 cells/well overnight. […] Next, the plates were assayed in a FlexStation 3 microplate reader (Molecular Devices). The fluorescence intensity was traced entirely for 80 s, and the fluorescence baseline was measured 20 s before application of 20 µL of the test compound (final concentration = 10 µmol/L). […]
QUANTITY_MEASURED: Activation of TRPA1 (in words)

molecule="CCCC[C@@H]1OC(=O)C2=C1CCC=C2 [Senkyunolide A]" quantity_measured="Activation of TRPA1 (in words)" result="potently activated"
molecule="CCCCC1OC(=O)c2ccccc21 (stereo not shown) [Butylphthalide]" quantity_measured="Activation of TRPA1 (in words)" result="potently activated"
molecule="CCC/C=C1\\OC(=O)C2=C1CCC=C2 [Ligustilide]" quantity_measured="Activation of TRPA1 (in words)" result="potently activated"
